Biological target: Sentrin-specific protease 8 (Homo sapiens) (UniProt Q96LD8)
Sequence (Q96LD8 whole entry, looked up): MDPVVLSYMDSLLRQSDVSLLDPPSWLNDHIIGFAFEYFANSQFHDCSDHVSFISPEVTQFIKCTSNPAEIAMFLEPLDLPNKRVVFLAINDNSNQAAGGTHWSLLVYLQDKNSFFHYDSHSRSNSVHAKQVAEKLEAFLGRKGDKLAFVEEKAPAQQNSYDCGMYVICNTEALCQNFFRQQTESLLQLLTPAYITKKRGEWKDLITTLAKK
Assay: blockers of human SENP8 peptidase activity – biochemical, luminescence, primary screen (AID 2540)
Conditions: purified SENP8, Z-RLRGG-aminoluciferin cleavage, at 10 µM, active compounds read high
In all, about 330,000 compounds went through this assay and about 4,100 (1.2%) were called active. What follows is part of a selection rich in actives, with near analogues and random picks from the rest.
Parameter inhibition: see the listing below.
property-name: inhibition

> print(dat)
                                    compound                         system.under.test  recorded.measurement
 1                  Oc1ccc(N=Nc2nccs2)c(O)c1  Sentrin-specific protease 8 (Homo sapiens) (UniProt Q96LD8)        72.7% (active)
 2  O=C(N/N=C/c1sc(N2CCCCC2)nc1-c1cccs1)c1cccnc1  Sentrin-specific protease 8 (Homo sapiens) (UniProt Q96LD8)     -8.56% (inactive)
 3  O=c1[nH]n(-c2ccc([N+](=O)[O-])cc2)c(=O)c2ccccc12  Sentrin-specific protease 8 (Homo sapiens) (UniProt Q96LD8)     -5.71% (inactive)
 4  CCC(=O)c1ccc(OCC(=O)OCC(=O)NC2CCCCCC2)cc1  Sentrin-specific protease 8 (Homo sapiens) (UniProt Q96LD8)    -0.587% (inactive)
 5  CC(=O)N1CCC(C(=O)OCc2ccc(Cl)cc2)(c2ccccc2)CC1  Sentrin-specific protease 8 (Homo sapiens) (UniProt Q96LD8)       -16% (inactive)
 6  COc1ccc([N+](=O)[O-])cc1-c1nc2ccccc2nc1-c1ccccc1  Sentrin-specific protease 8 (Homo sapiens) (UniProt Q96LD8)      12.3% (inactive)
 7  O=C1CC(c2ccccc2)=NN1c1ccc([N+](=O)[O-])cc1  Sentrin-specific protease 8 (Homo sapiens) (UniProt Q96LD8)        81.8% (active)
 8   O=[N+]([O-])c1ccc2oc(-c3cccc(O)c3)nc2c1  Sentrin-specific protease 8 (Homo sapiens) (UniProt Q96LD8)        84.7% (active)
 9  Cc1ccc(S(=O)(=O)NCCNC(C)c2ccc(Br)cc2)cc1 (stereo unspecified)  Sentrin-specific protease 8 (Homo sapiens) (UniProt Q96LD8)      2.45% (inactive)
10  COc1ccc2oc(-c3cccc(NC(=O)CSc4ccc(Cl)cc4)c3)nc2c1  Sentrin-specific protease 8 (Homo sapiens) (UniProt Q96LD8)     -5.16% (inactive)
11     O=C(Nc1ccc(N2CCCC2=O)cc1)c1cncc(Br)c1  Sentrin-specific protease 8 (Homo sapiens) (UniProt Q96LD8)    -0.181% (inactive)

* * *

Target: Sentrin-specific protease 8 (Homo sapiens)
Assay: blockers of human SENP8 peptidase activity – biochemical, luminescence, primary screen (AID 2540)
Conditions: purified SENP8, Z-RLRGG-aminoluciferin cleavage, at 10 µM, active compounds read high
About 4,100 (1.2%) of roughly 330,000 compounds were called active. The sample holds actives, similar compounds and a random draw of the others, so the mix is not that of the screen.
property-name: inhibition (%)

> print(dat)
                                    compound                         system.under.test  quantity.unit  recorded.measurement
 1  O=C(O)/C=C/C(=O)NNc1ccc([N+](=O)[O-])cc1  Sentrin-specific protease 8 (Homo sapiens)              %                  69.3
 2  CC(=NCc1ccco1)c1c(C(F)(F)F)[nH]n(-c2nc3ccccc3s2)c1=O  Sentrin-specific protease 8 (Homo sapiens)              %                  94.7
 3    O=C(O)Cc1ccc(NC(=O)Nc2cccc3ccccc23)cc1  Sentrin-specific protease 8 (Homo sapiens)              %                   -11
 4         O=C(Nc1cccc2ccccc12)c1onc2c1CCCC2  Sentrin-specific protease 8 (Homo sapiens)              %                  71.5
 5  N#C/C=C1\Sc2ccccc2C(=O)N1CC(=O)N1CCN(S(=O)(=O)c2ccccc2)CC1  Sentrin-specific protease 8 (Homo sapiens)              %                 -2.48
 6  O=C(N/N=C/c1ccc([N+](=O)[O-])cc1)C(=O)N1CCCC1  Sentrin-specific protease 8 (Homo sapiens)              %                 -9.06
 7  CCC(C)Cn1c(O)cc2nn(-c3nc4ccccc4s3)c(=O)c-2c1C (stereo unspecified)  Sentrin-specific protease 8 (Homo sapiens)              %                    48
 8  O=C(Cc1ccccc1)NNS(=O)(=O)c1ccc([N+](=O)[O-])cc1  Sentrin-specific protease 8 (Homo sapiens)              %                 -1.17
 9     Cc1ccc(NC(=O)c2sccc2C)cc1[N+](=O)[O-]  Sentrin-specific protease 8 (Homo sapiens)              %                  3.23
10  Cc1ccsc1C(=O)N/N=C/c1ccc([N+](=O)[O-])cc1  Sentrin-specific protease 8 (Homo sapiens)              %                  73.3
11           CCOc1ccc(C(=O)Nc2cccc(SC)c2)cc1  Sentrin-specific protease 8 (Homo sapiens)              %                  82.4
